biological target: HvirOR6/HvirOrco (Heliothis virescens, UniProt Q8MMI0); experiment: HvirOR6/HvirOrco co-expressed in Xenopus oocytes, two-electrode voltage clamp; format: cell-based
pEC50: −log10 of the molar value.

{"compound": "CCCCCC/C=C\\CCCCCCCC=O [Z9-16:Ald, (Z)-9-hexadecenal]", "measured target": "HvirOR6/HvirOrco (Heliothis virescens, UniProt Q8MMI0)", "pEC50": 4.61}
